The values you see were collected from the OligoGym collection.

target: TXNDC17; assay: pooled miR-30 sensor sort-seq; sequence = guide strand; details: shRNA
Parameter measured: sensor-assay potency score (higher = more potent)
One number for each entry.

Worked examples, 4 sequences total:
sensor-assay potency score (higher = more potent) reading for TTACTTTCAAGTTTTTTCTGAA : 0.123

sensor-assay potency score (higher = more potent) reading for TTTTTCTGAAGTCATTATTTGG : -1.37

sensor-assay potency score (higher = more potent) reading for AAGACACTCAGATTCTACCAGT : -0.12

sensor-assay potency score (higher = more potent) reading for TTAAGTAGTGTAGGCACTGCTG : -0.868

Continuing:
sensor-assay potency score (higher = more potent) reading for TTTCTGAAGTCATTATTTGGAT : -0.595

###

Please provide measured sensor-assay potency score (higher = more potent) for the entries that follow.
biological target: TMEM22; experiment: pooled miR-30 sensor sort-seq; sequence = guide strand; conditions: shRNA
Give bare numbers.

Worked examples, 3 sequences total:
sensor-assay potency score (higher = more potent) reading for TTTCTTTGGATTTTCCTCCATA : -0.74

sensor-assay potency score (higher = more potent) reading for TAACACACAACTAACACAGATA : -0.611

sensor-assay potency score (higher = more potent) reading for TTGTCCAATCTCATTGATCATT : -1.19

Hi there! I need sensor-assay potency score (higher = more potent) for each item below, if you can.
1. TATAACACAAAAGACATTCATA
2. TTGATCATTGGGTCTTCTGTTG

OUTPUT:
1: -0.457; 2: -0.772

sensor-assay potency score (higher = more potent) reading for TAGTATTTCCTGGTAGTCCTGC : -0.0251

###

molecular target: IKBKB; assay: pooled miR-30 sensor sort-seq; sequence = guide strand; conditions: shRNA
Parameter measured: sensor-assay potency score (higher = more potent)

Worked examples, 5 sequences total:
sensor-assay potency score (higher = more potent) reading for TTTTGTGTATTAACCTCTGTTC : -0.501

sensor-assay potency score (higher = more potent) reading for TTGAAAACTTCACCGTTCCATT : -0.697

sensor-assay potency score (higher = more potent) reading for TCTTCTTCCGTCTGTAACCAGC : -1.13

sensor-assay potency score (higher = more potent) reading for TTTCCTGATTGTGCCATCGGAT : -0.945

sensor-assay potency score (higher = more potent) reading for TAGTCTCCTGTACAGCTCCCTT : -1.81

Hi there! I need sensor-assay potency score (higher = more potent) for each item below, if you can.
1. TAAGTTTAAGATGTCATCCAGG
2. TTGCTCGCTGTACTTCTCCAGG
3. TTGCTTGCTCCTCTAGGTCGTC

OUTPUT:
1. -0.453
2. -0.598
3. -0.796

Hi there! I need sensor-assay potency score (higher = more potent) for each item below, if you can.
1. TAAGTCCACAATGTCGGTCTGC
2. TTTGAATTGGACACTGTCCAGT

OUTPUT:
[-0.424, -0.0592]

###

biological target: SGTA; assay: pooled miR-30 sensor sort-seq; sequence = guide strand; conditions: shRNA
Outcome label depends on sensor-assay potency score (higher = more potent) relative to -0.7: at/above gives 1, below gives -1.

INPUT: Check if sensor-assay potency score (higher = more potent) >= -0.7 (inclusive). Item: TAGGCCTTGCTGTAGGCCGGGT
OUTPUT: -1

INPUT: Check if sensor-assay potency score (higher = more potent) >= -0.7 (inclusive). Item: TATCTTGAGGTTGGACTTGTAT
OUTPUT: -1

INPUT: Check if sensor-assay potency score (higher = more potent) >= -0.7 (inclusive). Item: AAGGTCACTGTCTTCTACCGTC
OUTPUT: 1

Continuing:
INPUT: Check if sensor-assay potency score (higher = more potent) >= -0.7 (inclusive). Item: TTCCACTTTCATCTGCTCGTTT
OUTPUT: 1

INPUT: Check if sensor-assay potency score (higher = more potent) >= -0.7 (inclusive). Item: TTCTGCTGCTGCATCTGCTGGG
OUTPUT: 1

INPUT: Check if sensor-assay potency score (higher = more potent) >= -0.7 (inclusive). Item: TTGGACTTGTATGTCTCGTTGT
OUTPUT: 1

###

molecular target: HOXD4; test: pooled miR-30 sensor sort-seq; sequence = guide strand; conditions: shRNA
Parameter measured: sensor-assay potency score (higher = more potent)
Give bare numbers.

sensor-assay potency score (higher = more potent) reading for TTATGATCTTTTTTCCACTTCA : -0.3

Hi there! I need sensor-assay potency score (higher = more potent) for each item below, if you can.
1. TCGGACTGACTGTAGGCCCGGG
2. TTTTTCCAGTTCTAGGACTTGC
3. TTATGTTCTCAGTAGCTCCTGC
4. TAAAATGAAATTCTTTTTCCAG
5. TAGGACTTGCTGCCGGGTGTAG

OUTPUT:
1: -0.239; 2: -0.495; 3: 0.0954; 4: -0.413; 5: -1.46

###

Please provide measured sensor-assay potency score (higher = more potent) for the entries that follow.
molecular target: TMED3; test: pooled miR-30 sensor sort-seq; sequence = guide strand; conditions: shRNA
Give bare numbers.

sensor-assay potency score (higher = more potent) reading for TATTAAGGTCTTCCGCTCGGGC : -0.618

sensor-assay potency score (higher = more potent) reading for TAGCAGTCAACATCGTAGTGGC : -0.101

sensor-assay potency score (higher = more potent) reading for TTGAAAGTCAAAGTAGACGGTC : -0.0324

Hi there! I need sensor-assay potency score (higher = more potent) for each item below, if you can.
1. TACCACAGCAGCATCGTTCTGC
2. TTCGTTTCTCTGTAGATGGTGT
3. TACATAGCAGTCAACATCGTAG

OUTPUT:
0.426
0.459
-0.235

###

biological target: STX17; assay: pooled miR-30 sensor sort-seq; sequence = guide strand; conditions: shRNA
Outcome label depends on sensor-assay potency score (higher = more potent) relative to 0.09: at/above gives True, below gives False.

// below: answered sequences
INPUT: Check if sensor-assay potency score (higher = more potent) >= 0.09 (inclusive). Item: TATATCTGAGTCAAACTCTGAG
OUTPUT: True

INPUT: Check if sensor-assay potency score (higher = more potent) >= 0.09 (inclusive). Item: TACTTCTCAATATTTATCTGGT
OUTPUT: True

INPUT: Check if sensor-assay potency score (higher = more potent) >= 0.09 (inclusive). Item: TTCTTTAACAGGATCTATCATT
OUTPUT: False

INPUT: Check if sensor-assay potency score (higher = more potent) >= 0.09 (inclusive). Item: TTGACATGGTCTGCAATGCTGT
OUTPUT: False

INPUT: Check if sensor-assay potency score (higher = more potent) >= 0.09 (inclusive). Item: TTCTGCAGCATTTTGATCTTGA
OUTPUT: True

Continuing:
INPUT: Check if sensor-assay potency score (higher = more potent) >= 0.09 (inclusive). Item: AATGCTGTCAATCTTCTCCTGC
OUTPUT: False

INPUT: Check if sensor-assay potency score (higher = more potent) >= 0.09 (inclusive). Item: TAGTATGAAATGCTCCACCAAC
OUTPUT: False

###

target: GRAMD1B; assay: pooled miR-30 sensor sort-seq; sequence = guide strand; settings: shRNA
Outcome label depends on sensor-assay potency score (higher = more potent) relative to 0.09: at/above gives 1 (yes), below gives 0 (no).

INPUT: Check if sensor-assay potency score (higher = more potent) >= 0.09 (inclusive). Item: TTGGTCTCTATGCTGCTCTTGG
OUTPUT: 0 (no)

Continuing:
INPUT: Check if sensor-assay potency score (higher = more potent) >= 0.09 (inclusive). Item: TACATGGTCTGTGTCTCCCTGA
OUTPUT: 1 (yes)

INPUT: Check if sensor-assay potency score (higher = more potent) >= 0.09 (inclusive). Item: TATCGTGGTACTTTTGTTGGGA
OUTPUT: 1 (yes)

INPUT: Check if sensor-assay potency score (higher = more potent) >= 0.09 (inclusive). Item: TTGTCATTGAAGTCCAGTGAAG
OUTPUT: 0 (no)

INPUT: Check if sensor-assay potency score (higher = more potent) >= 0.09 (inclusive). Item: TAACACATTATACCAACTCTGG
OUTPUT: 0 (no)

INPUT: Check if sensor-assay potency score (higher = more potent) >= 0.09 (inclusive). Item: TTGTGTAGAAGTAGTCATGGTA
OUTPUT: 1 (yes)

INPUT: Check if sensor-assay potency score (higher = more potent) >= 0.09 (inclusive). Item: TTTTTGGAGCTCAGTATCGTGG
OUTPUT: 0 (no)

INPUT: Check if sensor-assay potency score (higher = more potent) >= 0.09 (inclusive). Item: TTGTAGAAGAGCATCATGTTAA
OUTPUT: 0 (no)

###

molecular target: COBRA1; assay: pooled miR-30 sensor sort-seq; sequence = guide strand; settings: shRNA
Please provide measured sensor-assay potency score (higher = more potent) for the entries that follow.
Answers are plain numbers.

Worked examples, 5 sequences total:
sensor-assay potency score (higher = more potent) reading for TTCTGATCCACATTGAAAGTGT : -0.064

sensor-assay potency score (higher = more potent) reading for TGACACTCGCTCCAGCAGCTTG : -1.51

sensor-assay potency score (higher = more potent) reading for AAACTTAGTGAAGCTTTCGGGA : -0.764

sensor-assay potency score (higher = more potent) reading for TTGCTGTCCACGAACCGCTCTC : -0.427

sensor-assay potency score (higher = more potent) reading for TTGGATATGAGACTGGGGCTTT : -0.217

# next sequence below
sensor-assay potency score (higher = more potent) reading for TTTTTTCTCCGGAACCTTGGGC : 0.129
